B1: DVL3 (parent)
chain: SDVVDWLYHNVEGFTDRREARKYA

Variants of: B1
experiment.summary: protein stability index of a GFP-peptide fusion (GPS, HEK-293T) (PSI 1-6); higher = more stable;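 note: lentivirally expressed fusions sorted by FACS into six bins by GFP to DsRed ratio, PSI derived from sequencing read proportions per bin multiplied by bin number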
recorded.conditions: c terminus: a fixed tail appended
readout.label: protein stability index
I only need the number, thanks.

Worked set:
{"sequence": "SDVVDWLYHNVEGFTDRREARKYD [A24D]", "protein stability index": 4.05}
{"sequence": "SDVVDWLYHSVEGFTDRREARKYA [N10S]", "protein stability index": 3.01}

Value of measured protein stability index for the entry SDVVDWLYHNVEGFTDRREARKEA [Y23E] : 3.97

Value of measured protein stability index for the entry SDVVGWLYHNVEGFTDRREARKYA [D5G] : 3.06
